# Tested on: LOX IMVI melanoma
# assay_text: NCI tumour cell line growth inhibition, 48 h
property: TGI

What value of TGI has been reported for the following molecule? Nc1ccc(C2NC(=O)Cc3c2ccc2ccccc32)cc1 (stereo unspecified)
> 100 µM

What value of TGI has been reported for the following molecule? N#CCCSC1SC(=C2SC3=C(SCCS3)S2)SC1SCCC#N (stereo unspecified)
> 100 µM

What value of TGI has been reported for the following molecule? N#Cc1c(N)nc(N2CCOCC2)c(C#N)c1-c1ccc(Cl)cc1
> 100 µM

What value of TGI has been reported for the following molecule? CS/C(=N\C(=S)Nc1ccccc1)Nc1ccccc1
38.2 µM

What value of TGI has been reported for the following molecule? CC(=O)CCC(=O)C(=[N+]=[N-])S(=O)(=O)c1ccccc1
> 100 µM

What value of TGI has been reported for the following molecule? C=C(C)[C@@H]1CC[C@]2(C(=O)NCCNCCNCCN)CC[C@]3(C)[C@H](CC[C@@H]4[C@@]5(C)CC[C@H](O)C(C)(C)[C@@H]5CC[C@]43C)[C@@H]12
28.6 µM

What value of TGI has been reported for the following molecule? COc1ccc(Cc2c(N)[nH]c(=O)n(C)c2=O)cc1
> 100 µM

What value of TGI has been reported for the following molecule? O=C1c2ccc3c4c5ccc(c24)C(=O)N1CCCOCCCCOCCCNCc1ccc(cc1)CNCCCOCCCCOCCCN(C3=O)C5=O
1.52 µM

What value of TGI has been reported for the following molecule? C=CCOc1ccc(/C(N=Nc2ccccc2)=N/NC(=O)c2ccccc2)cc1OC
> 100 µM

What value of TGI has been reported for the following molecule? c1cc(CSP234N5CCN2CCN3CCN4CC5)ccc1CSP123N4CCN1CCN2CCN3CC4
> 100 µM

What value of TGI has been reported for the following molecule? O=C1/C(=C/c2ccc3c(c2)OCO3)CCC1CN1CCOCC1 (stereo unspecified)
7.84 µM

What value of TGI has been reported for the following molecule? CC(=O)NCCSC(=O)c1ccccc1
0.306 µM

What value of TGI has been reported for the following molecule? NNC(=O)CCC(=O)Nc1cc(Cl)c(Cl)cc1Cl
> 100 µM

What value of TGI has been reported for the following molecule? C/C(=C\c1ccn(-c2ccc(N)c(F)c2)n1)[C@@H]1C[C@@H]2O[C@]2(C)CCC[C@H](C)[C@H](O)[C@@H](C)C(=O)C(C)(C)[C@@H](O)CC(=O)O1
> 50 µM

What value of TGI has been reported for the following molecule? COc1ccc2oc(=O)cc(C)c2c1
> 100 µM

What value of TGI has been reported for the following molecule? COC(=O)c1cc(-c2cc(OC)c(OC)c(OC)c2)[nH]c1N/N=C/c1c(Cl)cccc1Cl
17.3 µM

What value of TGI has been reported for the following molecule? O=c1c2cc(Br)ccc2nc(-c2ccccc2Cl)n1NCC1(O)OCC(O)C(O)C1O (stereo unspecified)
> 100 µM

What value of TGI has been reported for the following molecule? O=C(O)C(O)Cc1ccccn1 (stereo unspecified)
> 100 µM

What value of TGI has been reported for the following molecule? Cc1ccc2cc3c(ccc4ccccc43)c3c2c1CC3
> 100 µM

What value of TGI has been reported for the following molecule? Nc1ccc(C(=O)NN2C(=O)C(Cl)C2c2cc(Br)ccc2O)cc1 (stereo unspecified)
> 100 µM

What value of TGI has been reported for the following molecule? C=CCNCCCN1C(=O)c2ccc3c4c(ccc(c24)C1=O)C(=O)N(CCCNCC=C)C3=O
0.97 µM
